# test.system: Jak2 (UniProt O60674)
# Sequence (O60674 whole entry, looked up): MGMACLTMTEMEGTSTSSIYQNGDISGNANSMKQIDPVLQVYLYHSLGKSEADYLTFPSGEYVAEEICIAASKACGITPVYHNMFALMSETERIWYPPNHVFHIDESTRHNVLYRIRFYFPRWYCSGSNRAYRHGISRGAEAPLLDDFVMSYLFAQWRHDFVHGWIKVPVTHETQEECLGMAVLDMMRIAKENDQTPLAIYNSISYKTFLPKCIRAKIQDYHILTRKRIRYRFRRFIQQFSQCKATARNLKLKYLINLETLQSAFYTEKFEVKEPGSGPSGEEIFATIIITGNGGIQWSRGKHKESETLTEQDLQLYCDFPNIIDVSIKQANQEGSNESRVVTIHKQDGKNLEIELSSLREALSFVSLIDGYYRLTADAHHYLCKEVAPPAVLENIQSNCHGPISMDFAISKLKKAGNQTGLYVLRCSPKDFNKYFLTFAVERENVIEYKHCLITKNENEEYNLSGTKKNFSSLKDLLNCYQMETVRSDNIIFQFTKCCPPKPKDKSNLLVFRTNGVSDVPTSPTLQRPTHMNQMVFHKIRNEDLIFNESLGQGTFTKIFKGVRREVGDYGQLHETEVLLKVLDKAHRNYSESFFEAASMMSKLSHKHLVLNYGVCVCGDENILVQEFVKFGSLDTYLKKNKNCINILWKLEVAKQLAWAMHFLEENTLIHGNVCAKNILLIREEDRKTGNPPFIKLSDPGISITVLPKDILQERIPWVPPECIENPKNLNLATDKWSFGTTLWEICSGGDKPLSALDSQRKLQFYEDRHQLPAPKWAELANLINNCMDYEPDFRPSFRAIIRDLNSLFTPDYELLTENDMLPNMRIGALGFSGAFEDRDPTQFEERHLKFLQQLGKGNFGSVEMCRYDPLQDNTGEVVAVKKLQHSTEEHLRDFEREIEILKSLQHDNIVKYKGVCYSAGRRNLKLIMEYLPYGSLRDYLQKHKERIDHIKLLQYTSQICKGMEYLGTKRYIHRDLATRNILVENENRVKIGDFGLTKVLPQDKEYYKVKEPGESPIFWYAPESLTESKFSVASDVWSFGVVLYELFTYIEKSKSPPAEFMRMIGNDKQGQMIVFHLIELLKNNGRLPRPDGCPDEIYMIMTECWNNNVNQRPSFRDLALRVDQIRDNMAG
# run.description: phosphorylation enrichment, bacterial display (enrichment ratio); higher = better substrate or ligand; peptides without Tyr show the background
measurement.name: phosphorylation enrichment

>>> print(df.to_string())
                     ordered_residues            measurement_name  value_measured
 0         FEEDSYSHIMA [FDPS_Y388_YF]  phosphorylation enrichment            1.06
 1      SVTYTYSPALN [TP53_Y126_C124Y]  phosphorylation enrichment           0.997
 2     DESEDCRDTVV [CNNM3_Y456_Y456C]  phosphorylation enrichment            1.03
 3    KSIDEYLKLVG [RASAL2_Y381_E379D]  phosphorylation enrichment           0.761
 4        CSRCFYQLTKL [AR_Y858_R856C]  phosphorylation enrichment           0.728
 5     TYVVLYDAELT [ERCC4_Y581_R576T]  phosphorylation enrichment            1.05
 6   VQNIVYHTASI [CYP39A1_Y102_R103H]  phosphorylation enrichment           0.621
 7  MAFDRYVAICS [OR8D4_Y123_C120Y_YF]  phosphorylation enrichment            1.07
 8           VTSLKYSTSPY [BRIP1_Y916]  phosphorylation enrichment             0.6
 9            VPVNGYQPVPA [ROR2_Y824]  phosphorylation enrichment           0.416
10       INSLKYAFNIS [EIF2B5_Y583_YF]  phosphorylation enrichment           0.809
11     SLTRLCVGENA [NLRP3_Y861_Y861C]  phosphorylation enrichment           0.759
12          GDYLSYREFHS [ERBIN_Y1107]  phosphorylation enrichment            1.54
13          DAASNYARGHY [TUBA3E_Y103]  phosphorylation enrichment           0.428

###

# test.system: MERTK (UniProt Q12866)
# Sequence (Q12866 whole entry, looked up): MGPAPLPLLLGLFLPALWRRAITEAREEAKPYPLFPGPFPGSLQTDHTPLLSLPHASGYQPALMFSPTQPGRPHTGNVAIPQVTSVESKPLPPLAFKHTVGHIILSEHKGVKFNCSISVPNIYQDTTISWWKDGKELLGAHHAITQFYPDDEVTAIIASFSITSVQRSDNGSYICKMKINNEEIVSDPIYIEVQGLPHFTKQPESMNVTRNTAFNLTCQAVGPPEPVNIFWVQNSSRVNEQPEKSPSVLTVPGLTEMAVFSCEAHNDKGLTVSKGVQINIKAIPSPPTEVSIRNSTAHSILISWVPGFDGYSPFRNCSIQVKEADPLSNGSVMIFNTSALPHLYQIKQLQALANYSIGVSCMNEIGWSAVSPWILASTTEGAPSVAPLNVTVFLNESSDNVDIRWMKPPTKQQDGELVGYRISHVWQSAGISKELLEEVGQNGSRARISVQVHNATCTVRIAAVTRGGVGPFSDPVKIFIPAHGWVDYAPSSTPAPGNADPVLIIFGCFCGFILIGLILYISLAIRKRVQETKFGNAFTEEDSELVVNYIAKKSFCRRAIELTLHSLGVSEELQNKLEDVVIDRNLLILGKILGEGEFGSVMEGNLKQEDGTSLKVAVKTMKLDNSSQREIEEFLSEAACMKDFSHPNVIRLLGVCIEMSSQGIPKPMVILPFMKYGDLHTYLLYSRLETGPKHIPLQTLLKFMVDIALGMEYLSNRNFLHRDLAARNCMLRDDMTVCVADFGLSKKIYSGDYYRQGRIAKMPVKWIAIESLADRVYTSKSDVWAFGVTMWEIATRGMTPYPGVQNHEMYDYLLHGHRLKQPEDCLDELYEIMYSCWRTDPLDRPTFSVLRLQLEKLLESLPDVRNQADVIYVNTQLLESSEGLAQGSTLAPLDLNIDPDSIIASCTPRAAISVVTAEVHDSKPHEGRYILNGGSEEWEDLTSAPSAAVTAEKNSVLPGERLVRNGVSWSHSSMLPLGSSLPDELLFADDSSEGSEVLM
# run.description: phosphorylation enrichment, bacterial display (enrichment ratio); higher = better substrate or ligand; peptides without Tyr show the background
measurement.name: phosphorylation enrichment

>>> print(df.to_string())
                     ordered_residues  value_measured
 0    KSNSDYVDVLP [SH2D1B_Y127_N122K]            0.43
 1  MAQDIYRASFF [ALK_Y1278_R1275Q_YF]            0.66
 2           LNPLIYSLRNK [OR5R1_Y290]             1.5
 3           SDVCMYRKNIY [SYNE2_Y570]           0.419
 4           DGDTRYSTFSE [TKTL1_Y318]           0.451
 5      QFNIQYSSSAA [ERBB2IP_Y981_YF]           0.962
 6      KYRREYILSLE [GPC3_Y299_W296R]           0.576
 7            SNKLYYQLEQE [PDPR_Y110]             3.9
 8  HNVPICEGFAL [ACTC1_Y168_Y168C_YF]           0.673
 9     LKLWDYRRGRC [WDR5B_Y239_S240R]           0.708
10    REGKIYEYNQV [ZNF665_Y162_H157R]            3.19
11          GDYLSYREFHS [ERBIN_Y1107]           0.489
12             PVVKLYATDGR [RP1_Y199]           0.451
13     KERNQYGGVMV [MMP21_Y347_E349G]           0.394
14       HESEIYGKVCY [CSRP3_Y57_C58G]            1.08
15            HTLIKYTDGDQ [PUS7L_Y94]            1.16
16      ADARMYGVHPW [PLP1_Y207_L210H]           0.391
17           RRESQYQENRG [LRCH3_Y354]           0.472
18      KTGDYYDLYGG [PTPN11_Y63_N58K]            3.04
19          DAASNYARGHY [TUBA3E_Y103]            0.44
20        KFEDVYVGICL [B3GALNT1_Y269]           0.592
21           NNIDYYKKTTN [FGFR2_Y657]           0.437
22   QRPGLYDRPGA [HNRNPH2_Y210_P209L]           0.852
23             APGDAYGDAGY [SYP_Y250]           0.442
24           QKMLDYLKEKK [RYR2_Y3780]           0.398
25           VTSLKYSTSPY [BRIP1_Y916]           0.493
26     KDLPNYNWKSF [KISS1_Y112_N115K]           0.455
27      LMIEEYLTKEP [BAG3_Y457_L462P]            1.12
28      CTIIHYNYMCN [TP53_Y234_T231I]           0.419

###

# test.system: c-Src SH2;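 further: peptide library displayed on the E. coli surface as eCPX fusions, selected cells deep-sequenced, score is each peptide's frequency after selection divided by its frequency in the input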
# run.description: SH2 binding enrichment of the phosphorylated peptide, bacterial display (enrichment ratio); higher = better substrate or ligand; peptides without Tyr show the background
Param threshold (0.6) applies to SH2 binding enrichment; output Satisfied when value >= threshold, Not satisfied when value < threshold.

>>> print(df.to_string())
                       ordered_residues  category_label
 0         DSFATYFRWVL [H2BW1_Y84_R87W]       Satisfied
 1              SGGGSYGSGGG [KRT1_Y539]   Not satisfied
 2           VHHLVYHHHHH [CACNA1H_Y519]       Satisfied
 3              SHMVDYQPYRK [TEX37_Y25]   Not satisfied
 4             ARGMEYLASQK [FGFR2_Y616]   Not satisfied
 5     YEKFLYFLPAS [DYNC2H1_Y346_H341Y]       Satisfied
 6              GSPPPYRRRKR [MBD1_Y403]   Not satisfied
 7              GGTPLYMDRQG [AGXT_Y194]   Not satisfied
 8         TVEDHDYEGGI [TKT_Y563_Y563D]       Satisfied
 9              RVQKRYIFDNV [RCN1_Y115]   Not satisfied
10              AGREIYESDKC [TTN_Y4424]       Satisfied
11           KVALPYKPFFF [POLE_Y100_YF]       Satisfied
12       DESEDCRDTVV [CNNM3_Y456_Y456C]       Satisfied
13        NQDRTYYERVR [SPEN_Y632_S635R]       Satisfied
14           MSSLPYMKMIF [SLC4A11_Y853]       Satisfied
15        MGHVNYGAYIN [GLB1_Y485_R482H]       Satisfied
16            LGLTVYADCLA [ABCA4_Y2063]   Not satisfied
17           FEEDSYSHIMA [FDPS_Y388_YF]       Satisfied
18             MVIPNYSSRTE [UROC1_Y185]   Not satisfied
19         CRERPYGGGGG [FUS_Y526_R521C]       Satisfied
20              SYPREYGSQEG [RBM10_Y48]   Not satisfied
21              TSYSGYRYHRH [NKAPL_Y94]       Satisfied
22      GIVEDYRPPVY [ACVRL1_Y421_F425V]   Not satisfied
23          GHGRFYMKEAI [PGM1_Y66_D62H]       Satisfied
24      IYETDYYQKGG [INSR_Y1189_R1191Q]       Satisfied
25      PMFHSYVSLPF [PLXNA2_Y293_K289M]       Satisfied
26     QNTADYFDLFG [PTPN11_Y62_G60A_YF]   Not satisfied
27          HELFVYKCDEN [DOCK3_Y548_YF]   Not satisfied
28       QPGTDYKIYRY [FN1_Y1970_L1974R]   Not satisfied
29  NSRFTCKLEVK [USH2A_Y3747_Y3747C_YF]   Not satisfied
30    QMVRMYASSFM [AVPR2_Y124_G122R_YF]   Not satisfied
31              DENWFYTRAAS [RPS19_Y54]       Satisfied
32           APIEDYGGGGG [B4GALT6_Y382]   Not satisfied
33     KILTHYKQPHT [KMT2D_Y5349_R5351Q]       Satisfied
34               ASTHVYQIMNH [ITK_Y588]       Satisfied
35       VSSPKYGSNDE [TMCC2_Y473_D476N]   Not satisfied
36        NLMPAYFKCIQ [CYP21A2_Y190_YF]   Not satisfied
37           SHLEDYPFNAE [AKR1B10_Y310]   Not satisfied
38         DYDHSYYFIAT [ESD_Y262_G257D]   Not satisfied
39        LGSWTYPKTVS [ROS1_Y144_T145P]   Not satisfied
40            ADLTEYLSTHY [UQCRC1_Y219]       Satisfied
41        YEEDSYSHVMA [FDPS_Y388_I391V]       Satisfied
42        HSREDYFECFQ [ZIM2_Y411_Q408R]   Not satisfied
43    EEGNPYFSSTR [MCCC2_Y520_A524T_YF]   Not satisfied
44             ILGRTYYVNHE [NEDD4_Y627]       Satisfied
45       DDEESYENVPR [FCRL3_Y722_N721S]       Satisfied
46              NQELIYEGRRL [TBK1_Y354]   Not satisfied
47        DQVEQCKKELE [LMNA_Y259_Y259C]   Not satisfied
48          PSSNLYFRWLT [CNGA3_Y168_YF]       Satisfied
49             QDLFLYQTHSE [PKHD1_Y255]   Not satisfied
50      HESEIYGKVCF [CSRP3_Y57_C58G_YF]   Not satisfied
51    HNVPICEGFAL [ACTC1_Y168_Y168C_YF]   Not satisfied
52       CLMILHRLKER [PTPRR_Y249_Y249H]       Satisfied
53      RLCQDYDIIGP [ANK1_Y1073_T1075I]       Satisfied
54       TFGQVYKGPHV [TNIK_Y40_R43P_YF]   Not satisfied
55          AAFNRYDQERF [CDC73_Y293_YF]   Not satisfied
56            FGSLLYKYAFK [FANCD2_Y458]   Not satisfied
